Reference source: the RNAGym collection of RNA variant scans (doi:10.7554/elife.80360)

B1: CPEB3 Ribozyme (parent)
chain: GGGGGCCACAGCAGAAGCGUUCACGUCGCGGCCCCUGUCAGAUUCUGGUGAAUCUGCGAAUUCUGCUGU

# Variants of: B1
# protocol-details: self-cleavage, relative activity (ratio to wild type); higher = more cleavage; co-transcriptional
Output label 1 for self-cleavage not less than 0.5; output label 0 otherwise.

Look over these answered cases.
>  <variant-annotation>
G31C A40U

>  <label>
label 0

$$$$
>  <variant-annotation>
U26A C39G

>  <label>
label 1

$$$$
>  <variant-annotation>
G48C C57U

>  <label>
label 0

$$$$
>  <variant-annotation>
C24U G58A

>  <label>
label 1

$$$$
>  <variant-annotation>
U38G G41U

>  <label>
label 0

$$$$

Data request: Kindly determine if self-cleavage recorded for A15U A40U is above or exactly 0.5.
Data returned: label 0

Data request: Kindly determine if self-cleavage recorded for G37C G56C is above or exactly 0.5.
Data returned: label 0

Data request: Kindly determine if self-cleavage recorded for G19C C39U is above or exactly 0.5.
Data returned: label 0

Data request: Kindly determine if self-cleavage recorded for U38C U62A is above or exactly 0.5.
Data returned: label 1

Data request: Kindly determine if self-cleavage recorded for A23U U62G is above or exactly 0.5.
Data returned: label 1

Data request: Kindly determine if self-cleavage recorded for A40C G48C is above or exactly 0.5.
Data returned: label 1
